Target: CDK2/Cyclin E1(14-475) (Homo sapiens, UniProt P24941)
Test: Caliper LabChip EZ Reader mobility shift assay, inhibition of CDK2/Cyclin E1 activity
Assay type: biochemical
Conditions: class symbols A-D
Listing of recorded IC50 by entry.

1. CNC(=O)[C@H](CCCc1ccccc1)NC(=O)C1CN(C(=O)Cc2c[nH]c3cc(F)ccc23)CC2CN(C(=O)c3ccc(OC(C)C)c(OC)c3)CC21 (some centres unmarked) [I-174] :: 0.5 to 5 µM
2. CNC(=O)[C@@H](CCCC(C)C)NC(=O)C1CN(C(=O)Cc2c[nH]c3cc(Cl)ccc23)CC2CN(C(=O)c3ccc(OC(C)C)c(OC)c3)CC21 (some centres unmarked) [I-114] :: > 10 µM
3. CNC(=O)[C@H](CCCc1ccccc1)NC(=O)C1CN(C(=O)Cc2c[nH]c3cccc(C)c23)CC2CN(C(=O)c3ccc(OC(C)C)c(OC)c3)CC21 (some centres unmarked) [I-217] :: > 10 µM
4. CNC(=O)[C@H](CCCc1ccccc1)NC(=O)C1CN(C(=O)Cc2c[nH]c3cc(Cl)ccc23)CC2CN(C(=O)c3ccc(OC4CC4)cc3)CC21 (some centres unmarked) [I-6] :: 0.5 to 5 µM
5. CNC(=O)[C@H](CCCc1ccccc1)NC(=O)C1CN(C(=O)c2ccc3ncccc3c2)CC2CN(C(=O)c3ccc(OC(C)C)c(OC)c3)CC21 (some centres unmarked) [I-158] :: > 10 µM

Prompt: Given the compound CNC(=O)[C@H](CCCc1ccccc1)NC(=O)C1CN(C(=O)Cc2c[nH]c3cc(Cl)ccc23)CC2CN(C(=O)c3ccc(OC(C)C)c(F)c3)CC21 (some centres unmarked) [I-46] , what is its reported IC50?
Completion: 0.5 to 5 µM

Prompt: Can you check COc1cc(C(=O)N2CC3CN(C(=O)Cc4c[nH]c5cc(Cl)ccc45)CC(C(=O)N[C@H]4CCCN(Cc5ccccc5)C4)C3C2)ccc1OC(C)C (single isomer, unassigned) [I-117] next?
Completion: 0.5 to 5 µM

###

Target: CDK2/Cyclin E1(14-475) (Homo sapiens, UniProt P24941)
Experiment: Caliper LabChip EZ Reader mobility shift assay, inhibition of CDK2/Cyclin E1 activity
Format: biochemical
Details: class symbols A-D
Method: Inhibition of CDK2/Cyclin E1 activity in the presence of compounds of the present disclosure was evaluated using a Caliper LabChip® EZ Reader mobility shift assay. […] The peptide substrate and product were measured, and the conversion ratio was used to determine the inhibition (as % activity and IC50 values) of CDK2/Cyclin E1. […]
pIC50: −log10 of the molar value.
Listing of recorded pIC50 by entry.

Examples with their reported pIC50 follow.
1) CCc1ccc(C(=O)N2CC3CN(C(=O)c4ccc(OC(C)C)c(OC)c4)CC3C(C(=O)N[C@@H](CCCc3ccccc3)C(=O)NC)C2)nc1 (stereo partly drawn) :: < 5.00
2) CNC(=O)[C@H](CCCc1ccccc1)NC(=O)C1CN(C(=O)Cc2c[nH]c3cc(Cl)ccc23)CC2CN(C(=O)c3ccc4c(c3)n(C)c(=O)n4C(C)C)CC21 (single isomer, unassigned) [I-87] :: ≥ 6.30
3) CNC(=O)[C@H](CCCc1ccccc1)NC(=O)C1CN(C(=O)c2cnc(OC)cn2)CC2CN(C(=O)c3ccc(OC(C)C)c(OC)c3)CC21 (stereo partly drawn) :: < 5.00
4) COc1cc(C(=O)N2CC3CN(C(=O)Cc4c[nH]c5cc(Cl)ccc45)CC(C(=O)Nc4cncc(Oc5ccccc5)c4)C3C2)ccc1OC(C)C (stereo not drawn) :: 5.30 to 6.30
5) CNC(=O)[C@H](CCCc1ccccc1)NC(=O)C1CN(C(=O)Cc2c[nH]c3cc(Cl)ccc23)CC2CN(C(=O)c3ccc(OC(C)C)c4occc34)CC21 (stereo partly drawn) :: ≥ 6.30

Prompt: Given the molecule CNC(=O)[C@H](CCCc1ccccc1)NC(=O)C1CN(C(=O)c2cc(Cl)[nH]n2)CC2CN(C(=O)c3ccc(OC(C)C)c(OC)c3)CC21 (stereo partly drawn) , what is its reported pIC50?
Completion: < 5.00

###

Molecular target: CDK2/Cyclin E1(14-475) (Homo sapiens, UniProt P24941)
Assay: Caliper LabChip EZ Reader mobility shift assay, inhibition of CDK2/Cyclin E1 activity
Assay type: biochemical
Conditions: class symbols A-D
pIC50: −log10 of the molar value.
Listing of recorded pIC50 by entry.

Examples with their reported pIC50 follow.
1) COc1cc(C(=O)N2CC3CN(C(=O)Cc4c[nH]c5cc(Cl)ccc45)CC(C(=O)N[C@H](C(=O)NCCCCCNC(=O)OC(C)(C)C)C(C)OCc4ccccc4)C3C2)ccc1OC(C)C (single isomer, unassigned) [I-259] :: ≥ 6.30
2) CNC(=O)[C@H](CCCc1ccccc1)NC(=O)C1CN(C(=O)Cc2c[nH]c3cc(Cl)ccc23)CC2CN(C(=O)c3cn(-c4ccccc4)cn3)CC21 (stereo partly drawn) :: < 5.00

Proceeding to the next compound to report its pIC50.
Prompt: Given the compound CNC(=O)[C@H](CCCc1ccccc1)NC(=O)C1CN(C(=O)c2cccc(-c3cccnc3)c2)CC2CN(C(=O)c3ccc(OC(C)C)c(OC)c3)CC21 (stereo partly drawn) , what is its reported pIC50?
Completion: < 5.00

###

Molecular target: CDK2/Cyclin E1(14-475) (Homo sapiens)
Assay: Caliper LabChip EZ Reader mobility shift assay, inhibition of CDK2/Cyclin E1 activity
Type: biochemical
Conditions: class symbols A-D
measure: IC50

1) CNC(=O)[C@H](CCCc1ccccc1)NC(=O)C1CN(C(=O)Cc2c[nH]c3cc(Cl)ccc23)CC2CN(C(=O)c3ccc(OC)cc3)CC21 (stereo partly drawn) [I-5] :: > 10 µM
2) CNC(=O)[C@H](C/C=C/c1ccccc1)NC(=O)C1CN(C(=O)Cc2c[nH]c3cc(Cl)ccc23)CC2CN(C(=O)c3ccc(OC(C)C)c(OC)c3)CC21 (stereo partly drawn) [I-136] :: 0.5 to 5 µM

Prompt: Given the molecule CNC(=O)[C@H](CCCc1ccccc1)NC(=O)C1CN(C(=O)Cc2c[nH]c3cc(Cl)ccc23)CC2CN(C(=O)c3ccc4oc(C)cc4c3)CC21 (stereo partly drawn) [I-3] , what is its reported IC50?
Completion: > 10 µM

###

Biological target: CDK2/Cyclin E1(14-475) (Homo sapiens)
Assay: Caliper LabChip EZ Reader mobility shift assay, inhibition of CDK2/Cyclin E1 activity
Type: biochemical
Details: class symbols A-D
Listing of recorded IC50 by entry.

Prompt: Given the molecule CNC(=O)[C@H](CCCc1ccccc1)NC(=O)C1CN(C(=O)c2oc(C)nc2C)CC2CN(C(=O)c3ccc(OC(C)C)c(OC)c3)CC21 (some centres unmarked) , what is its reported IC50?
Completion: > 10 µM

Prompt: Can you check COc1cc(C(=O)N2CC3CN(C(=O)Cc4c[nH]c5cc(Cl)ccc45)CC(C(=O)N[C@@H](CCCc4cccc(O)c4)C(=O)NCCCCCN)C3C2)ccc1OC(C)C (single isomer, unassigned) [I-257] next?
Completion: 0.5 to 5 µM

Prompt: Can you check CNC(=O)[C@H](CCCc1ccccc1)NC(=O)C1CN(C(=O)c2ncoc2C)CC2CN(C(=O)c3ccc(OC(C)C)c(OC)c3)CC21 (some centres unmarked) next?
Completion: > 10 µM

Prompt: Can you check CNC(=O)[C@H](CCCc1cccc(O)c1)NC(=O)C1CN(C(=O)Cc2c[nH]c3cc(Cl)ccc23)CC2CN(C(=O)c3ccc(OC(C)C)c(OC)c3)CC21 (single isomer, unassigned) [I-153] next?
Completion: 0.5 to 5 µM

Prompt: Can you check CNC(=O)[C@H](CCCc1ccccc1)NC(=O)C1CN(C(=O)Cc2c[nH]c3cc(Cl)ccc23)CC2CN(C(=O)c3ccc(-c4cncnc4)cc3)CC21 (some centres unmarked) next?
Completion: > 10 µM

###

Target: CDK2/Cyclin E1(14-475) (Homo sapiens, UniProt P24941)
Assay: Caliper LabChip EZ Reader mobility shift assay, inhibition of CDK2/Cyclin E1 activity
Format: biochemical
Settings: class symbols A-D
pIC50: −log10 of the molar value.
Listing of recorded pIC50 by entry.

Examples with their reported pIC50 follow.
1) CNC(=O)[C@H](CCCc1ccccc1)NC(=O)C1CN(C(=O)CCCc2ccccn2)CC2CN(C(=O)c3ccc(OC(C)C)c(OC)c3)CC21 (some centres unmarked) [I-192] :: < 5.00
2) CNC(=O)[C@H](CCCC(C)C)NC(=O)C1CN(C(=O)Cc2c[nH]c3cc(Cl)ccc23)CC2CN(C(=O)c3ccc(OC(C)C)c(OC)c3)CC21 (some centres unmarked) [I-97] :: 5.30 to 6.30
3) CNC(=O)[C@H](CCCc1ccccc1)NC(=O)C1CN(C(=O)Cc2c[nH]c3cc(Cl)ccc23)CC2CN(C(=O)c3ccc4cccnc4c3)CC21 (some centres unmarked) [I-80] :: < 5.00
4) CNC(=O)[C@H](CCCc1ccccc1)NC(=O)C1CN(C(=O)Cc2c[nH]c3cc(C)ccc23)CC2CN(C(=O)c3ccc(OC(C)C)c(OC)c3)CC21 (some centres unmarked) [I-231] :: 5.00 to 5.30
5) CNC(=O)[C@@H](NC(=O)C1CN(C(=O)Cc2c[nH]c3cc(Cl)ccc23)CC2CN(C(=O)c3ccc(OC(C)C)c(OC)c3)CC21)[C@H](C)OCc1ccccc1 (single isomer, unassigned) [I-147] :: < 5.00

Prompt: Given the compound COC(=O)[C@@H](NC(=O)C1CN(C(=O)Cc2c[nH]c3cc(Cl)ccc23)CC2CN(C(=O)c3ccc(OC(C)C)c(OC)c3)CC21)[C@H](C)OCc1ccccc1 (some centres unmarked) [I-255] , what is its reported pIC50?
Completion: ≥ 6.30

Prompt: Can you check COc1cc(C(=O)N2CC3CN(C(=O)Cc4c[nH]c5cc(Cl)ccc45)CC(C(=O)NCc4ccc(C)nn4)C3C2)ccc1OC(C)C (single isomer, unassigned) [I-262] next?
Completion: < 5.00

Prompt: Can you check COc1cc(C(=O)N2CC3CN(C(=O)Cc4c[nH]c5cc(Cl)ccc45)CC(C(=O)Nc4cncc(Cc5ccccc5)c4)C3C2)ccc1OC(C)C (centres unmarked) [I-238] next?
Completion: 5.30 to 6.30

Prompt: Can you check CNC(=O)[C@@H](CCCC1CCCCCC1)NC(=O)C1CN(C(=O)Cc2c[nH]c3cc(Cl)ccc23)CC2CN(C(=O)c3ccc(OC(C)C)c(OC)c3)CC21 (some centres unmarked) [I-141] next?
Completion: < 5.00

Prompt: Can you check CNC(=O)[C@H](CCCc1ccccc1)NC(=O)C1CN(C(=O)Cc2c[nH]c3cc(Cl)ccc23)CC2CN(C(=O)c3ccc(OC(F)(F)F)cc3)CC21 (some centres unmarked) [I-25] next?
Completion: 5.30 to 6.30

Prompt: Can you check COc1cc(C(=O)N2CC3CN(C(=O)Cc4c[nH]c5cc(Cl)ccc45)CC(C(=O)NC4CCCN(C(=O)c5ccccc5)C4)C3C2)ccc1OC(C)C (centres unmarked) [I-89] next?
Completion: < 5.00

Prompt: Can you check CNC(=O)[C@H](CCCc1cccc(O)c1)NC(=O)C1CN(C(=O)Cc2c[nH]c3cc(Cl)ccc23)CC2CN(C(=O)c3ccc(OC(C)C)c(OC)c3)CC21 (single isomer, unassigned) [I-152] next?
Completion: < 5.00

Prompt: Can you check CNC(=O)[C@H](CCCc1ccccc1)NC(=O)C1CN(C(=O)c2cc3cccc(C)c3[nH]2)CC2CN(C(=O)c3ccc(OC(C)C)c(OC)c3)CC21 (some centres unmarked) [I-170] next?
Completion: < 5.00

Prompt: Can you check CCc1ccc(C(=O)N2CC3CN(C(=O)Cc4c[nH]c5cc(Cl)ccc45)CC(C(=O)N[C@@H](CCCc4ccccc4)C(=O)NC)C3C2)nc1 (some centres unmarked) [I-58] next?
Completion: < 5.00
